System: K4 kissing-loop RNA reporter;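 also: bound reporter read as fluorescence of individual clusters on recovered sequencing chips by microscopy, with normalized cluster intensities fitted with a binding model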
test: apparent KD of K4 kissing-loop reporter; higher = weaker reporter binding
cond: Eterna round: R107; input ligand: arginine 13.2 mM
The entries below come with measured apparent KD of K4 kissing-loop reporter values attached.
Give the value, in units of nM, as a plain number.

Here is how some sequences turned out for apparent KD of K4 kissing-loop reporter.
- CCGGCCCGGCCGGAUACCAGUGCGCCGCAGGGAACGGCGGGCCCAGAGUGAUGUUCGGGACACCCUUGGCAGCCGCCUGGGUCGC [#2 Same State - Theophylline B Attempt #27 (HarryS)]: 123
- AAAUGACAAGUAAUAAAGAAAAGCGGCGAUACCAGUAAGAACGUAUACCCUUGGCAGCGCAUAUUAGAGUGAUGUUCUAAUCCGA [theeternabot_sameState_KL_Theo_A_25]: 174

Read the next record carefully.
Quick one: apparent KD of K4 kissing-loop reporter of GGAUAGGACAUAGGAUAUGGGCUAGGCAAGAAUAACUUGUCUAGCAAAUCCAUGAGGAGUGAUGUUCCAGAAGGAUGUCCUAUCG [FmnBX 1 U11+A75] ?
108
